Molecular target: UniProtKB Q9R186
MEASURED_PARAMETER: pIC50
# log scale: pIC50 equals minus log10 of the concentration in mol/L

Incoming: pIC50 lookup needed for NCCOB(c1ccccc1)c1ccccc1 [2-APB, 2-aminoethoxydiphenyl borate] , thanks.
Outgoing: 3.74

---

Target: rTRPV6-M602A (Rattus norvegicus, UniProt Q9R186, M642A)
Sequence (Q9R186 41-767 M642A limits assumed): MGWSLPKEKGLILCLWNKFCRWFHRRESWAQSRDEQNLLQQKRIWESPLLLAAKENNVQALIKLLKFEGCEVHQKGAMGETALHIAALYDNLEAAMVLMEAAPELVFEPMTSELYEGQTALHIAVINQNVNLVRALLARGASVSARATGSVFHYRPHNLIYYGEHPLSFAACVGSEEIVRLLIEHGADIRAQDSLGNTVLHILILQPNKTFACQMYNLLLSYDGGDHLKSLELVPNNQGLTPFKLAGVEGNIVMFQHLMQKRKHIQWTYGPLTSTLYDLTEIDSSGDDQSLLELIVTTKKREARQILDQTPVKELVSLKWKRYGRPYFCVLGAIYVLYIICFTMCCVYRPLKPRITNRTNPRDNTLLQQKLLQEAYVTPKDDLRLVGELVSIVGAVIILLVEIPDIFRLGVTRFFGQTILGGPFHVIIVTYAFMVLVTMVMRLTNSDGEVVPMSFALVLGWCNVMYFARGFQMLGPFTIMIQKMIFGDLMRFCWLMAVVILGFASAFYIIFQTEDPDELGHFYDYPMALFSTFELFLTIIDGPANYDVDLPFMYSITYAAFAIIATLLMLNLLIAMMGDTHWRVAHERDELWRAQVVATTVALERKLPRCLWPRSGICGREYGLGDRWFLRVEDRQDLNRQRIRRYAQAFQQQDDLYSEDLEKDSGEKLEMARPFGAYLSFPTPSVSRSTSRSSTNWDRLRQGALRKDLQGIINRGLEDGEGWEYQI
Assay: cell-based
MEASURED_PARAMETER: IC50
Your answer should be a number followed by the unit of measure.

Incoming: Request - read-out IC50 | tested on rTRPV6-M602A (Rattus norvegicus, UniProt Q9R186, M642A) | molecule NCCOB(c1ccccc1)c1ccccc1 [2-APB, 2-aminoethoxydiphenyl borate]
Outgoing: 98 µM

---

Biological target: wild-type hTRPV6 (Homo sapiens)
Sequence (Q9H1D0 41-765 limits assumed): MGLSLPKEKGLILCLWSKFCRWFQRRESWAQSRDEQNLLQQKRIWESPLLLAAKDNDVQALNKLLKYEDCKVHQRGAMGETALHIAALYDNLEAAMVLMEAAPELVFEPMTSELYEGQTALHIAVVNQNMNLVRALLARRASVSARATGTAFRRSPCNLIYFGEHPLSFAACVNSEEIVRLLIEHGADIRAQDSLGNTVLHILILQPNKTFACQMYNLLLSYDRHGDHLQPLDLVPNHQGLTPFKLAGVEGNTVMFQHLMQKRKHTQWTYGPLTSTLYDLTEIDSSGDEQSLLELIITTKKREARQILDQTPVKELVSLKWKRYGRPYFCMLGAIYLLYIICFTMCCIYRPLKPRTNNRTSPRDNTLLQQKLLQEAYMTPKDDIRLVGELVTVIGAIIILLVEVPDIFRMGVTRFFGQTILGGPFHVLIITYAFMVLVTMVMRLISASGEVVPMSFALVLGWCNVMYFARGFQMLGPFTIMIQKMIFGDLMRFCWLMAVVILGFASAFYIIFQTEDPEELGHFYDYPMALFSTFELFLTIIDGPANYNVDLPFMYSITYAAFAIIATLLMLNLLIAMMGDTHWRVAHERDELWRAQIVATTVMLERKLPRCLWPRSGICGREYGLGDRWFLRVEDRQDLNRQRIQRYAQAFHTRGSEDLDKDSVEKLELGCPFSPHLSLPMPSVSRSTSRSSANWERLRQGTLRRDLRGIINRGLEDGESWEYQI
MEASURED_PARAMETER: pIC50
# log scale: pIC50 equals minus log10 of the concentration in mol/L

Incoming: Request - read-out pIC50 | tested on wild-type hTRPV6 (Homo sapiens) | compound NCCOB(c1ccccc1)c1ccccc1 [2-APB, 2-aminoethoxydiphenyl borate]
Outgoing: 3.56

---

Biological target: rTRPV6-E402A (Rattus norvegicus, UniProt Q9R186, E442A)
Sequence (Q9R186 41-767 E442A limits assumed): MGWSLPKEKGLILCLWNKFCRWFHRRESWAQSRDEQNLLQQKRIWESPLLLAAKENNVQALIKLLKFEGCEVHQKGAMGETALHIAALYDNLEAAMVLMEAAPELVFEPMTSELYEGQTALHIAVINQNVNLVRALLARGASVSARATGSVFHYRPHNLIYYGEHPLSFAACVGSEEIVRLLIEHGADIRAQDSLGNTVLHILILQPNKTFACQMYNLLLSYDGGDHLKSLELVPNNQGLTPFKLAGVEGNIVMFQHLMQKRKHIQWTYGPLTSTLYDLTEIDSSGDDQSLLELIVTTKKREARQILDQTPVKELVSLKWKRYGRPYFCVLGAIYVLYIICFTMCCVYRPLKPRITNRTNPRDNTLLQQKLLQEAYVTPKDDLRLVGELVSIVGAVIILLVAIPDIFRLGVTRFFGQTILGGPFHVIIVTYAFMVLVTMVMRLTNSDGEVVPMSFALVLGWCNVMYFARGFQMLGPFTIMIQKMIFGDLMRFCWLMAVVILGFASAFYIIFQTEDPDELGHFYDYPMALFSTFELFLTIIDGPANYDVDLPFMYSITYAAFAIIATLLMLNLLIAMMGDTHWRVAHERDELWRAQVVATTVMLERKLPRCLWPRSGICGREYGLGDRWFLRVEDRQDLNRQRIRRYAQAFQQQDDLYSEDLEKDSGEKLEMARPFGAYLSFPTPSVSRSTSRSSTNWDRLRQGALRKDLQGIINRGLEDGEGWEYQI
Experiment: cell-based
MEASURED_PARAMETER: pIC50
# log scale: pIC50 equals minus log10 of the concentration in mol/L

Incoming: pIC50 lookup needed for NCCOB(c1ccccc1)c1ccccc1 [2-APB, 2-aminoethoxydiphenyl borate] , thanks.
Outgoing: 5.12

Source listed as paper PMC6018633.
